Data provenance is paper PMC11855827.

Tested on: C. elegans
Test: microbe, parasite or virus in culture
Conditions: Caenorhabditis elegans, 24 h, read-out: Percentage of motility inhibition 24 h, Table S2, C. elegans SS assay, 110 μM, 24 h, averages of 4 data points
MEASURED METRIC: inhibition at 110 µM (%)
# output: bare number, implied unit %

Would you please look over these solved cases?
# COMPOUND, UOM, inhibition at 110 µM
measured = [
    ("CC(=O)O[C@H]1C(=O)[C@@]2(C)[C@H]([C@H](OC(=O)c3ccccc3)[C@]3(O)C[C@H](O)C(C)=C1C3(C)C)[C@]1(OC(C)=O)CO[C@@H]1C[C@@H]2O [Baccatin III]", "%", 0),
    ("CC(C)=CCc1cc(-c2coc3cc(O)ccc3c2=O)ccc1O [Neobavaisoflavone]", "%", 21),
]

Q) Suppose we examine the compound CO/N=C1\C[C@]2(C[C@@H]3C[C@@H](C/C=C(\C)C[C@@H](C)/C=C/C=C4\CO[C@@H]5[C@H](O)C(C)=C[C@@H](C(=O)O3)[C@]45O)O2)O[C@H](/C(C)=C/C(C)C)[C@H]1C [Moxidectin, reference compound] ; what inhibition at 110 µM value has been reported?
A) 86
